# assay_procedure: Absorption spectrum in ethyl acetate solution (spectrophotometer UV-2400PC)
# Format: physicochemical
# applied_conditions: 450 nm
measured_property: Abs value at 450 nm when normalized to Abs = 1.0 at λmax
The response must contain the number and no unit.

molecule	value_measured
CC1CC(C(C)(C)C)C(OC(=O)C2=C(c3ccccc3)C3=Cc4c(-c5ccccc5)c(C(=O)OC5C(C(C)(C)C)CC(C)CC5C(C)(C)C)c(NC(=O)c5ccc(OC(F)(F)F)cc5)[n]4[Zn-]([OH])[N+]3=C2NC(=O)c2ccc(OC(F)(F)F)cc2)C(C(C)(C)C)C1 (centres unmarked)	0.0135

Next item in the queue.
### Prompt I would be grateful if you could share the reported Abs value at 450 nm when normalized to Abs = 1.0 at λmax for CC1CC(C(C)(C)C)C(OC(=O)C2=C(c3ccccc3)C3=Cc4c(-c5ccccc5)c(C(=O)OC5C(C(C)(C)C)CC(C)CC5C(C)(C)C)c(NC(=O)c5cc(F)c(F)c(F)c5)[n]4[Zn-]([OH])[N+]3=C2NC(=O)c2cc(F)c(F)c(F)c2)C(C(C)(C)C)C1 (centres unmarked) .
### Response 0.0143
